For p38α (Homo sapiens), measured IC50 is reported for the entries below.

Before answering, review these 5 worked examples.
{"columns": ["test smiles", "reported measurement"],
 "data": [
  ["Cc1ccc(C(=O)NC2CC2)cc1-c1ccn2c(-c3c(F)cccc3C(F)(F)F)nnc2c1", "< 0.025 µM"],
  ["Cc1ccc(C(=O)Nc2ccnn2C)cc1-c1ccn2c(-c3ccccc3F)nnc2c1", "< 0.025 µM"],
  ["Cc1c(F)cc(C(=O)Nc2ccnn2C)cc1-c1ccn2c(-c3c(F)cccc3Cl)nnc2c1", "0.025 to 0.1 µM"],
  ["Cc1ccc(C(=O)NC2CC2)cc1-c1ccn2c(-c3ocnc3C)nnc2c1", "0.025 to 0.1 µM"],
  ["Cc1cc(Cl)c(C(=O)NC2CC2)cc1-c1ccn2c(-c3ccccc3Cl)nnc2c1", "0.25 to 1 µM"]
]}

input: Specify the recorded IC50 for `Cc1ccc(C(=O)NC2CC2)cc1-c1ccn2c(C(C)C)nnc2c1` , system: p38α (Homo sapiens).
Sequence (Q16539 whole entry): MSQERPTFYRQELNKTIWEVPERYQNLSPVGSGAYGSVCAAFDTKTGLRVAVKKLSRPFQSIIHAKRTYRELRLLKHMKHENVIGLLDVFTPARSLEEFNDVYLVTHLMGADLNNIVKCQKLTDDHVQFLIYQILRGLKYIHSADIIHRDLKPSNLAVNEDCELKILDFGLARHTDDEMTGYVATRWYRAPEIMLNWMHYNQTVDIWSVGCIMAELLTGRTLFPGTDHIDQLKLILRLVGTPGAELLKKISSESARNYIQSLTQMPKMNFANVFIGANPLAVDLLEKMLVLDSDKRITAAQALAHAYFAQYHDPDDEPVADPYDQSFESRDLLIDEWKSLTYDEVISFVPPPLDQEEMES
output: < 0.025 µM

input: Write down measured IC50 (p38α (Homo sapiens)) for this compound. `Cc1ccc(C(=O)Nc2ccnn2C)cc1-c1ccn2c(-c3ccccc3Cl)nnc2c1`
output: < 0.025 µM

input: State measured IC50 of the compound `Cc1ccc(C(=O)NC2CC2)cc1-c1ccn2c(-c3ccc(F)cc3C)nnc2c1` with p38α (Homo sapiens).
output: < 0.025 µM

* * *

Test system: THP1 cells
assay text: Lipopolysaccharide-activated THP1 cell TNF production assay
Assay type: cell-based, human
applied conditions: Homo sapiens, THP-1; LPS-induced TNF-α production in THP1 cells
pIC50: −log10 of the molar value.
property: pIC50

{"columns": ["test smiles", "reported measurement"],
 "data": [
  ["Cc1ccc(C(=O)NC2CC2)cc1-c1ccn2c(-c3ocnc3C)nnc2c1", "6.00 to 6.60"]
]}

input: Could you please provide reported pIC50 for `Cc1ccc(C(=O)Nc2ccnn2C)cc1-c1ccn2c(-c3ccc(F)cc3Cl)nnc2c1` ? Thanks!
output: > 7.60

input: Consider the compound `Cc1ccc(C(=O)NC2CC2)cc1-c1ccn2c(-c3ccc(F)cc3C)nnc2c1` and give its recorded pIC50.
output: > 7.60

input: Indicate its recorded pIC50; the compound in question is `Cc1ccc(C(=O)NC2CC2)cc1-c1ccn2c(-c3ccccc3F)nnc2c1`
output: 7.00 to 7.60

* * *

Tested on: THP1 cells
assay text: Lipopolysaccharide-activated THP1 cell TNF production assay
Assay type: cell-based, human
applied conditions: LPS-induced TNF-α production in THP1 cells; read-out: THP-1 cell assay
property: IC50

input: State IC50 (THP1 cells) of `Cc1ccc(C(=O)NC2CC2)cc1-c1ccn2c(C34CC5CC(CC(C5)C3)C4)nnc2c1` .
output: 25 to 100 nM

* * *

Test system: THP1 cells
assay text: Lipopolysaccharide-activated THP1 cell TNF production assay
Format: cell-based, human
applied conditions: Homo sapiens, THP-1; LPS-induced TNF-α production in THP1 cells
pIC50: −log10 of the molar value.
Examples of compounds with documented pIC50 follow.

{"columns": ["compound", "target or test system", "property", "reported measurement"],
 "data": [
  ["Cc1ccc(C(=O)Nc2ccnn2C)cc1-c1ccn2c(-c3cccnc3C)nnc2c1 [Example 33]", "THP1 cells", "pIC50", "6.60 to 7.00"],
  ["Cc1ccc(C(=O)NC2CC2)cc1-c1ccn2c(-c3c(Cl)cccc3Cl)nnc2c1 [Example 62]", "THP1 cells", "pIC50", "> 7.60"],
  ["Cc1ccc(C(=O)Nc2ccnn2C)cc1-c1ccn2c(-c3ccc(S(C)(=O)=O)cc3)nnc2c1 [Example 14]", "THP1 cells", "pIC50", "5.30 to 6.00"],
  ["Cc1ccc(C(=O)NC2CC2)cc1-c1ccn2c(C3CCOCC3)nnc2c1 [Example 97]", "THP1 cells", "pIC50", "7.00 to 7.60"],
  ["Cc1ccc(C(=O)NC2CC2)cc1-c1ccn2c(-c3ccncc3Cl)nnc2c1 [Example 80]", "THP1 cells", "pIC50", "> 7.60"]
]}

input: Name the recorded pIC50 of the item Cc1ccc(C(=O)NC2CC2)cc1-c1ccn2c(C3CCCCC3)nnc2c1 [Example 94] in your answer.
output: 7.00 to 7.60

input: Give pIC50 for the following compound: Cc1cc(F)c(C(=O)Nc2ccnn2C)cc1-c1ccn2c(-c3ccccc3Cl)nnc2c1 [Example 71]
output: 7.00 to 7.60

input: Give the reported pIC50 for this compound. Cc1cc(F)c(C(=O)Nc2ccnn2C)cc1-c1ccn2c(-c3sccc3C)nnc2c1 [Example 68]
output: > 7.60

input: Entry Cc1ccc(C(N)=O)cc1-c1ccn2c(N)nnc2c1 [Example 24] needs its pIC50 filled in; supply it.
output: 5.30 to 6.00

* * *

Entries with their measured IC50, system p38α (Homo sapiens, UniProt Q16539):

Solved cases (3 shown):
{"columns": ["test smiles", "target or test system", "reported measurement"],
 "data": [
  ["Cc1ccc(C(=O)Nc2ccon2)cc1-c1ccn2c(-c3c(F)cccc3F)nnc2c1", "p38α (Homo sapiens, UniProt Q16539)", "< 25 nM"],
  ["Cc1ccc(C(=O)NC2CC2)cc1-c1ccn2c(C3CCCC3)nnc2c1", "p38α (Homo sapiens, UniProt Q16539)", "< 25 nM"],
  ["Cc1ccc(C(=O)NC2CC2)cc1-c1ccn2c(-c3ccc(S(C)(=O)=O)cc3)nnc2c1", "p38α (Homo sapiens, UniProt Q16539)", "25 to 100 nM"]
]}

input: Query IC50 for `Cc1ccc(C(=O)NC2CC2)cc1-c1ccn2c(-c3sccc3C)nnc2c1`
output: < 25 nM

* * *

Recorded IC50 values (p38α (Homo sapiens, UniProt Q16539)) are given below.

{"columns": ["test smiles", "IC50"],
 "data": [
  ["Cc1ccc(C(=O)NC2CC2)cc1-c1ccn2c(-c3ccccc3Cl)nnc2c1C", "25 to 100 nM"],
  ["CCNC(=O)c1ccc(C)c(-c2ccn3c(-c4ccccc4Cl)nnc3c2)c1", "< 25 nM"],
  ["Cc1ccc(C(=O)NC2CC2)cc1-c1ccn2c(C(F)(F)F)nnc2c1", "100 to 250 nM"]
]}

input: Please indicate IC50 recorded for `Cc1ccc(C(=O)Nc2ccnn2C)cc1-c1ccn2c(-c3cc(F)ccc3Cl)nnc2c1`
output: < 25 nM

* * *

Tested on: THP1 cells
assay text: Lipopolysaccharide-activated THP1 cell TNF production assay
Assay type: cell-based, human
applied conditions: Homo sapiens, THP-1; LPS-induced TNF-α production in THP1 cells
# Lookup of reported IC50 keyed by entry

{"columns": ["test smiles", "target or test system", "property", "reported measurement"],
 "data": [
  ["Cc1ccc(C(=O)NC2CC2)cc1-c1ccn2c(-c3c(C)cccc3Cl)nnc2c1", "THP1 cells", "IC50", "< 25 nM"],
  ["Cc1ccc(C(=O)NC2(C)CC2)cc1-c1ccn2c(-c3ccc(F)cc3C)nnc2c1", "THP1 cells", "IC50", "100 to 250 nM"],
  ["Cc1ccc(C(=O)NC2CC2)cc1-c1ccn2c(-c3ccccc3C(F)(F)F)nnc2c1", "THP1 cells", "IC50", "25 to 100 nM"],
  ["Cc1ccc(C(=O)Nc2ccnn2C)cc1-c1ccn2c(C(C)C)nnc2c1", "THP1 cells", "IC50", "100 to 250 nM"],
  ["Cc1ccc(C(=O)Nc2ccnn2C)cc1-c1ccn2c(-c3sccc3C)nnc2c1", "THP1 cells", "IC50", "< 25 nM"]
]}

input: Quote IC50 reported for `Cc1ccc(C(=O)NC2CC2)cc1-c1ccn2c(-c3cccnc3)nnc2c1` please.
output: 100 to 250 nM

input: Look up IC50 of `Cc1ccc(C(=O)NC2CC2)cc1-c1ccn2c(N)nnc2c1` and report it.
output: 1000 to 5000 nM

input: Return IC50 for the following molecule: `Cc1cc(Cl)c(C(=O)NC2CC2)cc1-c1ccn2c(-c3ccccc3Cl)nnc2c1`
output: 1000 to 5000 nM

input: Quick one: give measured IC50 for `Cc1ccc(C(=O)NC2CC2)cc1-c1ccn2c(C(C)C)nnc2c1`
output: 25 to 100 nM

* * *

System: THP1 cells
assay text: Lipopolysaccharide-activated THP1 cell TNF production assay
Type: cell-based, human
applied conditions: Homo sapiens, THP-1; LPS-induced TNF-α production in THP1 cells
pIC50: −log10 of the molar value.
property: pIC50

Please review the following examples before continuing.
{"columns": ["test smiles", "pIC50"],
 "data": [
  ["Cc1ccc(C(=O)NC2CC2)cc1-c1ccn2c(CC(F)(F)F)nnc2c1", "6.60 to 7.00"],
  ["Cc1ccc(C(=O)NC2CC2)cc1-c1ccn2c(CC(C)(C)C)nnc2c1", "7.00 to 7.60"]
]}

input: Answer with the recorded pIC50 of `Cc1ccc(C(=O)NC2CC2)cc1-c1ccn2c(-c3cc(F)c(F)cc3Cl)nnc2c1` only.
output: 6.60 to 7.00

input: Consider the molecule `Cc1ccc(C(=O)NC2CC2)cc1-c1ccn2c(-c3ccc(F)cc3Cl)nnc2c1` and give its recorded pIC50.
output: 7.00 to 7.60

input: Tell me pIC50 reported for `Cc1c(F)cc(C(=O)NC2CC2)cc1-c1ccn2c(-c3ccccc3C(F)(F)F)nnc2c1`
output: > 7.60

input: Output measured pIC50 for this item: `Cc1ccc(C(=O)NC2CC2)cc1-c1ccn2c(NC(C)C)nnc2c1`
output: 6.60 to 7.00

input: Please give measured pIC50 of the following entry: `Cc1c(F)cc(C(=O)NC2CC2)cc1-c1ccn2c(-c3ccncc3Cl)nnc2c1`
output: > 7.60

input: Please look at this molecule and report its pIC50: `Cc1ccc(C(=O)Nc2ccnn2C)cc1-c1ccn2c(-c3ccc(F)cc3C)ncc2c1`
output: > 7.60
